Assay Notes: Lipophilicity, logP of the compound by 19F NMR-based method
Measurement Setup: octanol/water
Would you mind telling me the reported logP of each entry?

So for CCCC(O)CF (configuration not stated) , the logged logP turned out to be 0.74

Looking up FCC(F)[C@H](F)Cc1c[nH]c2ccccc12 (some centres not stated) , I found its logP recorded as 2.7

// CC(F)(F)COc1ccc2[nH]ccc2c1 : logP value = 2.7

Note to self: logP recorded for OCC(F)F was -0.29

logP reading for OCCCCC(F)F : 0.66

Quick note, logP for OCCC(F)F landed at 0.04

Quick note, logP for CN(C)C(=O)CNCCc1cccc(OCCC(C)(F)F)c1 landed at 1.1

get_value(item= OCCCCF , readout=logP) returns 0.09

logP recorded for this compound, CC(O)CCC(F)F (configuration not stated) , is 0.64

Recorded result, CC(F)[C@H](F)CCc1c[nH]c2ccccc12 (some centres not stated) , logP: 2.8

Per the record, OCC(F)(F)C(F)C(F)(F)F (configuration not stated) has logP of 1.53

The reported value for CCC(F)(F)CCO in terms of logP is 0.92

// logP lookup, compound = CC(O)CCCF (configuration not stated) , result: 0.42

Briefly, logP measured for CCOC(=O)[C@@H]1CCCN1C(C)=O : 0

The compound listed as OCCCC(F)C(F)F (configuration not stated) has a reported logP of 0.52

Briefly, logP measured for CC(=O)N1CCC[C@H]1C(=O)OCC(F)F : 0.02

Noted for OCCCF : its logP reads -0.26

----------
Please respond with reported hepatocyte CLint for every item in the list.
Assay Notes: Intrinsic clearance in rat hepatocytes assessed per million cells
Type: ADME, cell-based, Hepatocyte
Measurement Setup: read-out: CLH
I only need the number, in µL/min/1e6 cells, no unit after it.

// CN(C)C(=O)CNCCc1cccc(OCCCCC(F)(F)F)c1.Cl : hepatocyte CLint value = 105

hepatocyte CLint in this record for CN(C)C(=O)CNCCc1cccc(OCCCC(F)(F)F)c1.Cl : 52

Note to self: hepatocyte CLint recorded for CN(C)C(=O)CNCCc1cccc(OCCCC(F)(F)CF)c1.Cl was 34

----------
Hi there, I'd appreciate the recorded logP for every entry that follows.
Assay Notes: Lipophilicity, logP of the compound by 19F NMR-based method
Measurement Setup: octanol/water

Value of measured logP for the entry CCC(F)(F)CO : 0.67

Notebook: CCCC(O)C(F)F (stereo not drawn) , logP read as 1.14

Just so you know, measured logP for FC(F)CCOc1ccc2[nH]ccc2c1 came out at 2.6

Reported logP ( CCC(F)CO (stereo not drawn) ) = 0.26

compound OCCC(F)CF (stereo not drawn) , logP observed: -0.12

According to the records, this compound CCCCOc1cccc(CCNCC(=O)N(C)C)c1 [EVENAMIDE] displays logP of 1.8

compound OCCC(F)(F)C(F)(F)C(F)(F)F , logP observed: 2.1

Lab note: measured logP of CC[C@@H](F)[C@H](C)O (racemic) was 0.68

Record summary for OCCC(F)(F)C(F)F : reported logP = 0.66

The measured logP associated with OCCCC(F)C(F)(F)F (stereo not drawn) reads 1.22

GET /value?item= CCCC(F)(F)CO &field=logP returns 1.25

logP recorded for this compound, FCCCOc1ccc2[nH]ccc2c1 , is 2.5

Value of logP reported for the compound CN(C)C(=O)CNCCc1cccc(OCC(F)(F)C(F)(F)C(F)(F)F)c1 is 2.5

Kindly note the recorded logP for FC(F)(F)CCOc1ccc2[nH]ccc2c1 , which is 2.8

# logP (compound: OCC(F)CC(F)(F)F (stereo not drawn) ) is 0.6

The compound identified as CC(F)(F)CCO registered its logP at 0.34

CCC(F)(F)C(C)O (stereo not drawn) yielded logP of 1.04

The recorded logP for OCC(F)(F)CC(F)(F)F is 1.04

The origin of these recorded values is ChEMBL document CHEMBL4376873.
